System: CP201
PROCEDURE SUMMARY: qHTS profiling for inhibitors of Plasmodium falciparum proliferation (AID 504749); also: nearly all actives have a fitted effect of over 60% in size
MEASUREMENT PARAMETERS: P. falciparum in erythrocytes, SYBR Green DNA, 72 h; series mostly up to 28.7 µM
Procedure: NIH National Institute of Allergy and Infectious Diseases [NIAID] NIH Chemical Genomics Center [NCGC] […] Because mature erythrocytes lack DNA, only Plasmodium-derived DNA is detected. NCGC Assay Protocol Summary: The SYBR Green viability assay was adapted from a method described previously (Plouffe et al., 2008). […] The following morning, fluorescence intensity at 485(14) nm excitation and 535(25) nm emission wavelengths was measured on an EnVision (Perkin Elmer) plate reader. […]
Records with an inconclusive call do not appear. The source made the active and inactive calls. Calls follow the shape of the dose curve; as a rule, active = well fitted inhibition curve with a large enough effect; inconclusive = small, poorly fitted or top-dose-only effect; inactive = flat fitted curve, though single readings scatter.
Classes used: true for active, false for inactive

[
  {
    "COMPOUND": "CC1=C(/C=C/C(C)=C/C=C/C(C)=C/CO)C(C)(C)CCC1",
    "TESTED TARGET": "CP201",
    "CATEGORY": "false"
  },
  {
    "COMPOUND": "CCCCC(C)(O)C/C=C/[C@H]1[C@H](O)CC(=O)[C@@H]1CCCCCCC(=O)OC (stereo partly specified)",
    "TESTED TARGET": "CP201",
    "CATEGORY": "false"
  },
  {
    "COMPOUND": "C#CCOc1ccc2c(C)cc(=O)oc2c1",
    "TESTED TARGET": "CP201",
    "CATEGORY": "false"
  },
  {
    "COMPOUND": "COC(=O)[C@H]1[C@H]2C[C@@H]3c4[nH]c5ccccc5c4CCN3C[C@H]2C[C@@H](OC(=O)c2cc(OC)c(OC)c(OC)c2)[C@@H]1OC",
    "TESTED TARGET": "CP201",
    "CATEGORY": "true"
  },
  {
    "COMPOUND": "CC1(C)C(C=C(Cl)Cl)C1C(=O)OCc1cccc(Oc2ccccc2)c1 (stereo unspecified)",
    "TESTED TARGET": "CP201",
    "CATEGORY": "false"
  },
  {
    "COMPOUND": "O=C(O)c1cc(=O)c2c3nc4ccccc4oc-3cc(=O)c2[nH]1",
    "TESTED TARGET": "CP201",
    "CATEGORY": "false"
  },
  {
    "COMPOUND": "COc1ccc2c3c1O[C@H]1C[C@@H](O)C=C[C@@]31CCN(C)C2",
    "TESTED TARGET": "CP201",
    "CATEGORY": "false"
  },
  {
    "COMPOUND": "CCCCCCCC(=O)O",
    "TESTED TARGET": "CP201",
    "CATEGORY": "false"
  },
  {
    "COMPOUND": "O=S(=O)(O)O",
    "TESTED TARGET": "CP201",
    "CATEGORY": "false"
  },
  {
    "COMPOUND": "CCN(CC)Cc1cc(Nc2ccnc3cc(Cl)ccc23)ccc1O",
    "TESTED TARGET": "CP201",
    "CATEGORY": "true"
  },
  {
    "COMPOUND": "CCNC(=O)[C@@H]1CCCN1C(=O)[C@H](CCCN=C(N)N)NC(=O)[C@H](CC(C)C)NC(=O)[C@@H](Cc1c[nH]c2ccccc12)NC(=O)[C@H](Cc1ccc(O)cc1)NC(=O)[C@H](CO)NC(=O)[C@H](Cc1c[nH]c2ccccc12)NC(=O)[C@H](Cc1cnc[nH]1)NC(=O)[C@@H]1CCC(=O)N1",
    "TESTED TARGET": "CP201",
    "CATEGORY": "true"
  },
  {
    "COMPOUND": "CCOC(C)=O",
    "TESTED TARGET": "CP201",
    "CATEGORY": "false"
  },
  {
    "COMPOUND": "Cc1cc(C(=O)NNCc2ccccc2)no1",
    "TESTED TARGET": "CP201",
    "CATEGORY": "false"
  },
  {
    "COMPOUND": "CCCCC/C=C\\C/C=C\\CCCCCCCC(=O)O",
    "TESTED TARGET": "CP201",
    "CATEGORY": "false"
  },
  {
    "COMPOUND": "CO[C@H]1C[C@@H]2CC[C@@H](C)[C@@](O)(O2)C(=O)C(=O)N2CCCC[C@H]2C(=O)O[C@H]([C@H](C)C[C@@H]2CC[C@@H](OCCO)[C@H](OC)C2)CC(=O)[C@H](C)/C=C(\\C)[C@@H](O)[C@@H](OC)C(=O)[C@H](C)C[C@H](C)/C=C/C=C/C=C/1C",
    "TESTED TARGET": "CP201",
    "CATEGORY": "true"
  },
  {
    "COMPOUND": "CC(C)=O",
    "TESTED TARGET": "CP201",
    "CATEGORY": "false"
  },
  {
    "COMPOUND": "CCCCC(CC)COC(=O)CC(C(=O)OCC(CC)CCCC)S(=O)(=O)O (stereo unspecified)",
    "TESTED TARGET": "CP201",
    "CATEGORY": "false"
  },
  {
    "COMPOUND": "Cc1cn([C@H]2C[C@H](O)[C@@H](CO)O2)c(=O)[nH]c1=O",
    "TESTED TARGET": "CP201",
    "CATEGORY": "false"
  },
  {
    "COMPOUND": "COC(=O)CCC(=O)CN",
    "TESTED TARGET": "CP201",
    "CATEGORY": "false"
  },
  {
    "COMPOUND": "CCCCCCC(O)C/C=C/CCCCCCCC(=O)O (stereo unspecified)",
    "TESTED TARGET": "CP201",
    "CATEGORY": "false"
  },
  {
    "COMPOUND": "NC(=O)c1ncn(C2OC(CO)C(O)C2O)n1 (stereo unspecified)",
    "TESTED TARGET": "CP201",
    "CATEGORY": "false"
  },
  {
    "COMPOUND": "C[C@@H]1CCC2[C@@H](C)[C@@H](O)O[C@@H]3O[C@@]4(C)CC[C@@H]1[C@@]23OO4 (stereo partly specified)",
    "TESTED TARGET": "CP201",
    "CATEGORY": "true"
  },
  {
    "COMPOUND": "CC(NNC(=O)c1ccccc1)c1ccccc1 (stereo unspecified)",
    "TESTED TARGET": "CP201",
    "CATEGORY": "false"
  },
  {
    "COMPOUND": "COCC(=O)Nc1cc(Sc2ccccc2)ccc1N=C(NC(=O)OC)NC(=O)OC",
    "TESTED TARGET": "CP201",
    "CATEGORY": "false"
  },
  {
    "COMPOUND": "CC(=O)Oc1c(C)cc(OCC(O)CNC(C)C)c(C)c1C (stereo unspecified)",
    "TESTED TARGET": "CP201",
    "CATEGORY": "false"
  },
  {
    "COMPOUND": "Nc1c(Br)cc(Br)cc1CNC1CCC(O)CC1 (stereo unspecified)",
    "TESTED TARGET": "CP201",
    "CATEGORY": "false"
  },
  {
    "COMPOUND": "C=C1C(=CC=C2CCC[C@@]3(C)[C@@H]2CC[C@H]3[C@H](C)CCCC(C)C)C[C@@H](O)C[C@@H]1O",
    "TESTED TARGET": "CP201",
    "CATEGORY": "false"
  },
  {
    "COMPOUND": "CCCCCCCC/C=C\\CCCCCCCC(=O)O",
    "TESTED TARGET": "CP201",
    "CATEGORY": "false"
  },
  {
    "COMPOUND": "COc1cc(-c2ccc(-[n+]3nc(-c4ccccc4)nn3-c3ccc([N+](=O)[O-])cc3)c(OC)c2)ccc1-[n+]1nc(-c2ccccc2)nn1-c1ccc([N+](=O)[O-])cc1",
    "TESTED TARGET": "CP201",
    "CATEGORY": "true"
  },
  {
    "COMPOUND": "CC1=CCC(C(C)(C)O)CC1 (stereo unspecified)",
    "TESTED TARGET": "CP201",
    "CATEGORY": "false"
  },
  {
    "COMPOUND": "Cc1ccccc1OCC(O)CNCCOc1ccc(C(N)=O)cc1 (stereo unspecified)",
    "TESTED TARGET": "CP201",
    "CATEGORY": "false"
  },
  {
    "COMPOUND": "Oc1cc(O)c2c(c1)OC(c1ccc(O)c(O)c1)C(O)C2 (stereo unspecified)",
    "TESTED TARGET": "CP201",
    "CATEGORY": "false"
  },
  {
    "COMPOUND": "Nc1ncnc2c1ncn2[C@@H]1O[C@H](COP(=O)(O)OP(=O)(O)OP(=O)(O)O)[C@@H](O)[C@H]1O",
    "TESTED TARGET": "CP201",
    "CATEGORY": "false"
  },
  {
    "COMPOUND": "O=S(=O)(O)c1ccc2c(N=Nc3ccc(S(=O)(=O)O)c4ccccc34)c(O)c(S(=O)(=O)O)cc2c1",
    "TESTED TARGET": "CP201",
    "CATEGORY": "false"
  },
  {
    "COMPOUND": "O=C(COc1ccc(Cl)cc1)OCCNC12CC3CC(CC(C3)C1)C2",
    "TESTED TARGET": "CP201",
    "CATEGORY": "false"
  },
  {
    "COMPOUND": "CC1(C)S[C@@H]2[C@H](NC(=O)[C@@H](NC(=O)N3CCNC3=O)c3ccccc3)C(=O)N2[C@H]1C(=O)O",
    "TESTED TARGET": "CP201",
    "CATEGORY": "false"
  },
  {
    "COMPOUND": "CC(Cc1ccc(O)c(O)c1)C(C)Cc1ccc(O)c(O)c1 (stereo unspecified)",
    "TESTED TARGET": "CP201",
    "CATEGORY": "false"
  },
  {
    "COMPOUND": "CCCCCCCCCCCCCC[n+]1ccc(C)cc1",
    "TESTED TARGET": "CP201",
    "CATEGORY": "true"
  },
  {
    "COMPOUND": "C#C[C@]1(O)CC[C@H]2[C@@H]3CCC4=CCCC[C@@H]4[C@H]3C(=C)C[C@@]21CC",
    "TESTED TARGET": "CP201",
    "CATEGORY": "false"
  },
  {
    "COMPOUND": "CC(C)N=c1cc2n(-c3ccc(Cl)cc3)c3ccccc3nc-2cc1Nc1ccc(Cl)cc1",
    "TESTED TARGET": "CP201",
    "CATEGORY": "false"
  },
  {
    "COMPOUND": "CN1C(=O)CN2CCc3ccccc3C2c2cc(Cl)ccc21 (stereo unspecified)",
    "TESTED TARGET": "CP201",
    "CATEGORY": "false"
  }
]
